molecular target: Cholinesterase (Equus caballus); assay: Inhibition of equine serum butyrylcholine esterase incubated for 15 mins using S-butyrylthiocholine chloride substrate by colorimetric Ellman's method
Sequence (P81908 whole entry): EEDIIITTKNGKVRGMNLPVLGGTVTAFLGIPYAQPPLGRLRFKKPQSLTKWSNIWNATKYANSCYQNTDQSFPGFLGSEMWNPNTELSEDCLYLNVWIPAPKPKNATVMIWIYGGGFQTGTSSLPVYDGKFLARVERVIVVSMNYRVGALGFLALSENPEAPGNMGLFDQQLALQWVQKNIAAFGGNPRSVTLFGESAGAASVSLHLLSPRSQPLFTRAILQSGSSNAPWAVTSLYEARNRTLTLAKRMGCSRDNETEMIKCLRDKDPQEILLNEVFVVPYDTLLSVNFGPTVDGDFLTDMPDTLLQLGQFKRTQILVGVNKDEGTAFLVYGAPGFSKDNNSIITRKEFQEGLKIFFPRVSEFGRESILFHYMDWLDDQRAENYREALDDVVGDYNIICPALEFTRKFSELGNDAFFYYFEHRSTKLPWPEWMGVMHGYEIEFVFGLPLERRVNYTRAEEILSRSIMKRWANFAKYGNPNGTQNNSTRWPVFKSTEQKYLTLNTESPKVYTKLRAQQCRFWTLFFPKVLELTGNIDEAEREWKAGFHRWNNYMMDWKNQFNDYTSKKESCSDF
value type: IC50 (µM)
Give the number; µM is assumed, so skip it.

Please review the following examples before continuing.
CCN(CC)C(=O)Oc1ccc2c(c1)O/C(=C\c1ccc(OCCCN(C)C)cc1)C2=O : 6.1
COc1ccc2c(c1)O/C(=C\c1ccc(OCCCN(C)C)c(Cl)c1)C2=O : 21.6
COc1ccc2c(c1)O/C(=C\c1ccc(N(C)C)cc1)C2=O : 31.8
COc1ccc(/C=C2\Oc3cc(OCCN(C)C)ccc3C2=O)cc1 : 25.3
CCN(CC)C(=O)Oc1ccc2c(c1)O/C(=C\c1ccc(OCCN(C)C)cc1)C2=O : 9.69

Query (compound): COc1ccc2c(c1)O/C(=C\c1ccc(OCCN(C)C)cc1Cl)C2=O ; field requested: IC50
23.9

Query (compound): COc1cc(/C=C2\Oc3cc(OCCN(C)C)ccc3C2=O)cc(OC)c1OC ; field requested: IC50
66.4

Query (compound): COc1ccc(/C=C2\Oc3cc(OCCN4CCCC4)ccc3C2=O)cc1 ; field requested: IC50
7.19

Query (compound): COc1ccc2c(c1)O/C(=C\c1ccc(OCCN3CCCCC3)cc1)C2=O ; field requested: IC50
8.87

Query (compound): CCN(CC)C(=O)Oc1ccc2c(c1)O/C(=C\c1ccc(OCCN3CCCCC3)cc1)C2=O ; field requested: IC50
7.17

Hello, the source for this data is ChEMBL document CHEMBL3414445, in case you need it.
